Target: human CD33 on primary human monocyte-derived dendritic cells (human, UniProt P20138 18-364)
Sequence (P20138 18-364): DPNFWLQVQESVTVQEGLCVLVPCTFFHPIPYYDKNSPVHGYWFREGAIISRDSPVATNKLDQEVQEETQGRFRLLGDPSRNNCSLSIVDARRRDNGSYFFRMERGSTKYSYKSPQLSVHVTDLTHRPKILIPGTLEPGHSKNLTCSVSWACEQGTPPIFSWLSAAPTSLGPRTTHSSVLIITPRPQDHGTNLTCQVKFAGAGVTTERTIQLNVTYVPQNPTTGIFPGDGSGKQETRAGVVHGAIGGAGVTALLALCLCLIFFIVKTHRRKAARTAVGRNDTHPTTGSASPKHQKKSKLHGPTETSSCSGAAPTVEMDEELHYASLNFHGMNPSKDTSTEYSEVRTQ
Assay: cell-based or functional assay
parameter.measured: Receptor downregulation (EC50)
Report field: quantity (unit follows the number).

Consider the worked cases shown below.
| binder | Receptor downregulation (EC50) |
| --- | --- |
| AB-64.6 (antibody, V domains shown) VH: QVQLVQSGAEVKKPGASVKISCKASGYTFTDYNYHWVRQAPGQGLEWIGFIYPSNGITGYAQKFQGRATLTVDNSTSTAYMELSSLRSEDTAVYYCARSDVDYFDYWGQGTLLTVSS VL: DIVLTQSPDSLAVSLGERATINCRASQDVSTSTYSYMHWYQQKPGQPPKLLIKYASFLESGVPDRFSGSGSGTDFTLTISSLQAEDVAVYYCQHSWEIPLTFGQGTKLEIK | 11.3 pM |
| AB-64.1.2 (antibody, V domains shown, Variant of AB-64.1) VH: QVQLVQSGAEVKKPGASVKISCKASGYTFTDYNLHWVRQAPGQGLEWIGFIYPSNRITGYAQKFQGRATLTVDNSTSTAYMELSSLRSEDTAVYYCARSDVDYFDYWGQGTLLTVSS VL: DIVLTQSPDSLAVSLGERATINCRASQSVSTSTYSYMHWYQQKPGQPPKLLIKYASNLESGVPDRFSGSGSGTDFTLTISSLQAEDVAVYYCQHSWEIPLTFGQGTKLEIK | 18.9 pM |
| AB-H64 (antibody, V domains shown, Humanized variant of murine 2F5.1; also called parental humanized antibody) VH: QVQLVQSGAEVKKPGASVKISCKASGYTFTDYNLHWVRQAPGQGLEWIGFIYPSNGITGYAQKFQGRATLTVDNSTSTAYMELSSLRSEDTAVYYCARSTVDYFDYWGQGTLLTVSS VL: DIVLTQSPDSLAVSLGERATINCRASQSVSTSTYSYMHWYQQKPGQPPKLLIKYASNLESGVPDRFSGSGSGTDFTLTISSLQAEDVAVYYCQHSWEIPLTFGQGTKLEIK | 29 pM |
| AB-64.1 (antibody, V domains shown) VH: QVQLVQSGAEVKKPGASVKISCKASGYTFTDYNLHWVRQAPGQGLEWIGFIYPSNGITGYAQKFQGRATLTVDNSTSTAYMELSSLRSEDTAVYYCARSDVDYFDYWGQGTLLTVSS VL: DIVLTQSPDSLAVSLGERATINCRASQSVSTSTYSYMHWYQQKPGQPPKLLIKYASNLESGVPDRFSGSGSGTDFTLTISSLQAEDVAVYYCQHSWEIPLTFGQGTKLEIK | 15.4 pM |

// Receptor downregulation (EC50) value for Chimeric Ab (antibody, V domains shown, Chimeric antibody with the variable regions of murine 2F5.1; also called parental antibody; comparator antibody) VH: EVQLQQSGPELVKPGASVKISCKASGYTFTDYNLHWVKLSHGKSLEWIGFIYPSNGITGYNQKFKNKATLTVDNSSSTAYMELRSLTSEDSAVYYCARSTVDYFDYWGQGTTLTVSS VL: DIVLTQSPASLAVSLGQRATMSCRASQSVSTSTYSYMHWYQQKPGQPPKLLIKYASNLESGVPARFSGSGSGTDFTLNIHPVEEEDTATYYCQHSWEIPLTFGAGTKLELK : 86.9 pM

Data provenance is patent US20210139581A1.
